target-desc: UniProtKB O14791
measurement-description: MultiTox-Fluor Multiplex Cytotoxicity Assay in tet-inducible APOL1 T-REx-HEK293 cells (cell rescue, ratio of dead to live cells)
assay-context: tet-inducible transgenic APOL1 T-REx-HEK293 cell lines, 50 ng/mL tet, 24 hours; read-out: IP50 (i.e., IC50 for cell proliferation)
pIC50: −log10 of the molar value.
# reported pIC50; entries follow

> print(dat)
                                   compound        result
1  CCc1cc2c(s1)CCO[C@@]21CCN(Cc2cn(CCOc3nonc3C)nn2)[C@@H](C)C1 [Compound 185]        > 7.00
2  CCc1cc2c(s1)CCO[C@@]21CCN(CC2CN(S(=O)(=O)C3CCOCC3)C2)[C@@H](C)C1 [Compound 494]  6.30 to 7.00
3  CCc1cc2c(s1)CCO[C@@]21CCN(Cc2ncon2)[C@@H](C)C1 [Compound 293]  6.00 to 6.30
4  C[C@H]1C[C@@]2(CCN1Cc1cn(CCS(C)(=O)=O)nn1)OCC(F)c1cc(Cl)sc12 (some centres unmarked) [Compound 863]  6.30 to 7.00
5  CC(O)Cn1cc(CN2CC[C@]3(C[C@@H]2C)OCCc2cc(CC(F)F)sc23)nn1 (some centres unmarked) [Compound 543]        > 7.00
6  CCc1cc2c(s1)[C@]1(CCN(Cc3cnn(CCS(C)(=O)=O)c3)[C@@H](C)C1)OCC2O (some centres unmarked) [Compound 1037]        > 7.00
7  Cc1sc2c(c1C)[C@]1(CCN(Cc3cn(CCS(C)(=O)=O)nn3)[C@@H](C)C1)OCC2 [Compound 512]  6.30 to 7.00

Now turn to the next compound.
I am curious: what pIC50 value has been reported for C[C@H]1C[C@@]2(CCN1Cc1cnn(CC(O)C3(O)CCCC3)c1)OCCc1c2sc(C(F)(F)F)c1CO (some centres unmarked) [Compound 955] ?
> 7.00

====

Parameter IC50: see the listing below.
target-desc: APOL1 (Homo sapiens, UniProt O14791)
measurement-description: MultiTox-Fluor Multiplex Cytotoxicity Assay in tet-inducible APOL1 T-REx-HEK293 cells (cell rescue, ratio of dead to live cells)
assay-context: tet-inducible transgenic APOL1 T-REx-HEK293 cell lines, 50 ng/mL tet, 24 hours; read-out: IP50 (i.e., IC50 for cell proliferation)
Protocol: The MultiTox-Fluor Multiplex Cytotoxicity Assay is a single-reagent-addition, homogeneous, fluorescence assay that measures the number of live and dead cells simultaneously in culture wells. […] The MultiTox reagent was added to each well and placed back in the incubator for an additional 30 minutes. The plate was read on the EnVision plate reader. A ratio of dead to live cells was used to normalize, and data was imported, analyzed, and fit using Genedata Screener (Basel, Switzerland) software. […]

> print(dat)
                                   compound         result
1  CCc1cc2c(s1)CCO[C@@]21CCN(Cc2cnc(Cl)nc2)[C@@H](C)C1 [Compound 198]  0.1 to 0.5 µM
2  CCc1cc2c(s1)CCOC21CCN(Cc2ccc(NCc3cc[nH]c(=O)c3)cc2)CC1 [Compound 1162]  0.1 to 0.5 µM

Fill blank: measured IC50 of the compound C[C@H]1C[C@@]2(CCN1Cc1cn[nH]c1)OCCc1c2sc(C(F)(F)F)c1CO [Compound 873] is ____.
< 0.1 µM

Which IC50 reading was recorded for the compound C[C@H]1C[C@@]2(CCN1CC(F)F)OCCc1cc(CC(F)F)sc12 [Compound 616] ?
0.5 to 1 µM

What measured IC50 goes with CCc1cc2c(s1)CCO[C@@]21CCN(Cc2cn(CC(C)(C)CO)nn2)[C@@H](C)C1 [Compound 135] ?
0.1 to 0.5 µM

====

target-desc: APOL1 (Homo sapiens, UniProt O14791)
Sequence (O14791 1-398 S342G/I384M): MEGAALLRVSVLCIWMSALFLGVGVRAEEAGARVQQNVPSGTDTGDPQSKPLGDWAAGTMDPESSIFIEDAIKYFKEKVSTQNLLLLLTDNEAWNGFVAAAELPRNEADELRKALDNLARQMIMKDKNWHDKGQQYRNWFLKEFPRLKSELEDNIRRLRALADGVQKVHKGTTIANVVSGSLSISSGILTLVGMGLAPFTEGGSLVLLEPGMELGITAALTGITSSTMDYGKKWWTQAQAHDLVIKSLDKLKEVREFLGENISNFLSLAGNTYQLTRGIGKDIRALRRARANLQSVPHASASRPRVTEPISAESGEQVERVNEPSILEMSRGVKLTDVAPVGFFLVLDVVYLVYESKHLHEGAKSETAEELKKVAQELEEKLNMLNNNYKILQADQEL
measurement-description: MultiTox-Fluor Multiplex Cytotoxicity Assay in tet-inducible APOL1 T-REx-HEK293 cells (cell rescue, ratio of dead to live cells)
assay-context: tet-inducible transgenic APOL1 T-REx-HEK293 cell lines, 50 ng/mL tet, 24 hours; read-out: IP50 (i.e., IC50 for cell proliferation)
property: IC50

Worked examples, 6 compounds total:
> print(dat)
                                   compound                           target.desc         result
1  CCc1cc2c(s1)CCO[C@@]21CCN(CC2CN(C(=O)Cc3ccncn3)C2)[C@@H](C)C1 [Compound 441]  APOL1 (Homo sapiens, UniProt O14791)       < 0.1 µM
2  CCc1cc2c(s1)CCO[C@@]21CCN(CC2CN(C(=O)C3C4COCC43)C2)[C@@H](C)C1 (stereo partly shown) [Compound 451]  APOL1 (Homo sapiens, UniProt O14791)  0.1 to 0.5 µM
3  C[C@H]1C[C@@]2(CCN1C[C@H](O)C(N)=O)OCCc1sc(Cl)cc12 [Compound 508]  APOL1 (Homo sapiens, UniProt O14791)  0.1 to 0.5 µM
4  CCc1cc2c(s1)CCO[C@@]21CCN(C[C@H]2C[C@@H](NS(=O)(=O)c3ccc(F)cc3)C2)[C@@H](C)C1 [Compound 399]  APOL1 (Homo sapiens, UniProt O14791)       < 0.1 µM
5  CCc1cc2c(s1)CCO[C@@]21CCN(Cc2cn(CC3(C4(O)CCOCC4)CC3)nn2)[C@@H](C)C1 [Compound 103]  APOL1 (Homo sapiens, UniProt O14791)  0.1 to 0.5 µM
6  CCc1cc2c(s1)CCO[C@@]21CCN(Cc2cn(CC3CN(C(C)=O)CCO3)nn2)[C@@H](C)C1 (stereo partly shown) [Compound 171]  APOL1 (Homo sapiens, UniProt O14791)  0.1 to 0.5 µM

Now consider the entry below.
Reported IC50 for APOL1 (Homo sapiens, UniProt O14791), given C[C@H]1C[C@@]2(CCN1Cc1cnn(C[C@@H](O)CO)c1)OC[C@@H](O)c1cc(C(F)(F)F)sc12 [Compound 969] ?
< 0.1 µM

====

target-desc: APOL1 (Homo sapiens, UniProt O14791)
Sequence (O14791 1-398 S342G/I384M): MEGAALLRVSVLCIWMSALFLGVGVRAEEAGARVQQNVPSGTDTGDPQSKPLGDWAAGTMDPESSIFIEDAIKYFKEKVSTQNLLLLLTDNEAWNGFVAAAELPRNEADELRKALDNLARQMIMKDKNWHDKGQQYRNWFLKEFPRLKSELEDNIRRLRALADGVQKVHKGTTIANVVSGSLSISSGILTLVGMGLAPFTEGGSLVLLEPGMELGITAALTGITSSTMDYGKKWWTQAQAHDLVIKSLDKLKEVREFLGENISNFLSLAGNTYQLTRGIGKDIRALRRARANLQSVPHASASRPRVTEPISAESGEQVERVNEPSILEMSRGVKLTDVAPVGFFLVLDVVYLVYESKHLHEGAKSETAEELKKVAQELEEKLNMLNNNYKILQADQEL
measurement-description: MultiTox-Fluor Multiplex Cytotoxicity Assay in tet-inducible APOL1 T-REx-HEK293 cells (cell rescue, ratio of dead to live cells)
assay-context: tet-inducible transgenic APOL1 T-REx-HEK293 cell lines, 50 ng/mL tet, 24 hours; read-out: IP50 (i.e., IC50 for cell proliferation)
pIC50: −log10 of the molar value.
property: pIC50

> print(dat)
                                   compound  property        result
1  CCc1cc2c(s1)CCO[C@@]21CCN(C2COCC2O)[C@@H](C)C1 (stereo partly shown) [Compound 232]     pIC50        > 7.00
2  COCc1cc2c(s1)[C@]1(CCN(Cc3cnn(CCS(C)(=O)=O)c3)[C@@H](C)C1)OCC2     pIC50  6.30 to 7.00
3  CCc1cc2c(s1)CCO[C@@]21CCN(Cc2cn(CC3CCOC3)nn2)[C@@H](C)C1 (stereo partly shown)     pIC50  6.30 to 7.00
4  CCc1cc2c(s1)CCO[C@@]21CCN(C[C@H]2C[C@@H](NS(=O)(=O)CCCO)C2)[C@@H](C)C1     pIC50  6.00 to 6.30
5  CCc1cc2c(s1)CCOC21CCN(Cc2cn(C3CS(=O)(=O)C3)nn2)CC1     pIC50  6.00 to 6.30

Which pIC50 reading was recorded for the compound "CCc1cc2c(s1)CCO[C@@]21CCN(Cc2cn(CCSCC(C)(C)O)nn2)[C@@H](C)C1" ?
> 7.00

Sample CCc1cc2c(s1)CCOC21CCN(Cc2cnn(C)c2)C(CC)C1 (stereo not shown) — what was its pIC50?
> 7.00

If you can, please state the reported pIC50 value of CCc1cc2c(s1)CCO[C@@]21CCN(Cc2cn(CC(O)c3nccn3C)nn2)[C@@H](C)C1 (stereo partly shown) .
> 7.00
